Just for reference, PubChem BioAssay is where these values come from.

# System: Fibrinogen (Alexa647-labelled)
# Assay Notes: Alexa647-fibrinogen binding to printed small molecules – biochemical, small-molecule microarray, 635/667 nm fluorescence, artefact control for SMM control-protein annotation, profiling panel (AID 1131);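 note: z-score merges 667 nm fluorescence with per-spot signal-to-noise over triplicate slides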
# Settings: fibrinogen-A647 binding fluorescence, higher = more signal
Returns Met if the recorded composite z-score is greater than or equal to 0.2, and Not met otherwise.

| Compound | Measurement Target | Label |
| --- | --- | --- |
| C=C(COC)/C(=C/C[C@H](OC(C)=O)c1ccccc1OCCO)c1cc(C(=O)OC)ccc1OC | Fibrinogen (Alexa647-labelled) | Met |
| CC(C)[Si](C#CCCc1ccccc1)(O[C@H](c1ccccc1)c1cn(Cc2ccccc2)nn1)C(C)C | Fibrinogen (Alexa647-labelled) | Met |
| CCCC[C@H]1C[C@@H]1[C@@H]1N(C(C)=O)[C@H](c2cccc(OC)c2)CC12CC2 | Fibrinogen (Alexa647-labelled) | Met |
| CC(C)NC(=O)[C@@]1(C)c2ccccc2C(=O)N(Cc2ccccc2)[C@H]1c1ccc(CO)cc1 | Fibrinogen (Alexa647-labelled) | Not met |
| COCCOC(=O)N1C(=O)[C@@]2(c3cc(C#CCCO)ccc31)[C@H](c1ccc(OCCO)cc1)N1[C@H](c3ccccc3)[C@H](c3ccccc3)OC(=O)[C@H]1[C@@H]2C(=O)N1CCCCCCC1 | Fibrinogen (Alexa647-labelled) | Met |
| COc1ccc([Si](C)(C)[C@H]2[C@H](CC(=O)N3Cc4ccccc4C[C@H]3CO)O[C@@]3(C(=O)N(C)c4ccccc43)[C@@H]2C)cc1 | Fibrinogen (Alexa647-labelled) | Met |
| O=C1NC(=O)C2C1C=CC(C(O)c1ccc([N+](=O)[O-])cc1)N2Nc1ccccn1 (centres undefined) | Fibrinogen (Alexa647-labelled) | Not met |
| COc1ccc([Si](C)(C)[C@H]2[C@H](CC(=O)N3CCC[C@H]3CO)O[C@@]3(C(=O)N(Cc4ccc(N5CCCCC5=O)cc4)c4ccccc43)[C@@H]2C)cc1 | Fibrinogen (Alexa647-labelled) | Met |
| C=CCC(OC(C)=O)[C@@H]1[C@@H](N(Cc2ccc(-c3cccc(C(F)(F)F)c3)o2)C(=O)c2ccc(-c3ccccc3)cc2)c2cc(OCCCO)ccc2N1C(=O)c1ccc2ccccc2c1 (some centres undefined) | Fibrinogen (Alexa647-labelled) | Not met |
| O=C(NCCN1CCOCC1)[C@@H]1c2ccccc2C(=O)N(Cc2ccc(OC(F)(F)F)cc2)[C@H]1c1ccc(CO)cc1 | Fibrinogen (Alexa647-labelled) | Not met |
| CC(C)N1C(=O)C[C@@](C(=O)NCCN2CCOCC2)(c2ccc([N+](=O)[O-])cc2)[C@H]1c1ccc(CO)cc1 | Fibrinogen (Alexa647-labelled) | Not met |
| CCC(CC)C(O)C1C=CC2C(=O)N(c3ccccc3)C(=O)C2N1Nc1ccccc1F (centres undefined) | Fibrinogen (Alexa647-labelled) | Met |
| C=C1C(=O)C=C2CN(C(=O)c3ccccc3)[C@@](Cc3ccc(OC)cc3)(C(=O)OC)[C@@H]12 | Fibrinogen (Alexa647-labelled) | Met |
| COc1ccc([Si](C)(C)[C@@H]2[C@@H](CC(=O)N3CCC[C@H]3CO)O[C@]3(C(=O)N(Cc4cccc(N5CCCCC5=O)c4)c4ccccc43)[C@H]2C)cc1 | Fibrinogen (Alexa647-labelled) | Met |
| C=CC[C@@]12N=C(c3ccc(OCCCO)cc3)O[C@@H]1c1ccccc1N(CCC)C2=O | Fibrinogen (Alexa647-labelled) | Met |
| CC1CC/C=C\[C@H]2OC34C=CCN(CCN5CCOCC5)C(=O)[C@H]3N(CCCO)C(=O)[C@@H]4C2C(=O)O1 (some centres undefined) | Fibrinogen (Alexa647-labelled) | Not met |
| O=C1O[C@@H](c2ccccc2)[C@@H](c2ccccc2)N2[C@@H](c3ccccc3OCCO)[C@]3(C(=O)Nc4ccc(C#CCCO)cc43)[C@@H](C(=O)NC[C@H](O)c3ccccc3)[C@H]12 | Fibrinogen (Alexa647-labelled) | Met |
| CC1CC/C=C\[C@H]2OC34C=CCN(C(C)(C)C)C(=O)[C@H]3N(CCCO)C(=O)[C@@H]4C2C(=O)O1 (some centres undefined) | Fibrinogen (Alexa647-labelled) | Not met |
| CCOC(=O)C1=C[C@@H](C(C)(C)C)N(S(=O)(=O)c2ccc(C)cc2)[C@H]1c1ccc(C#N)cc1 | Fibrinogen (Alexa647-labelled) | Met |
| C=CC[C@@]1(C(=O)OC)N=C(c2ccc(OCCCO)cc2)O[C@@H]1c1ccccc1N=[N+]=[N-] | Fibrinogen (Alexa647-labelled) | Not met |
| CN(C)c1ccc(C(O)C2C=CC3C(=O)N(Cc4ccccc4)C(=O)C3N2n2cnnc2)cc1 (centres undefined) | Fibrinogen (Alexa647-labelled) | Met |
| COC(=O)[C@@]1(Cc2ccc(F)cc2)[C@H]2c3cc(C(=O)N(C)C)n(C)c3C[C@H]2CN1C(=O)c1ccccc1 | Fibrinogen (Alexa647-labelled) | Not met |
| CC(C)(C)OC(=O)CC[C@@]1(C(=O)NCCN2CCOCC2)N=C(c2ccc(OCCCO)cc2)O[C@@H]1c1ccccc1CN=[N+]=[N-] | Fibrinogen (Alexa647-labelled) | Met |
| CCCN1C(=O)[C@@]2(c3ccc([N+](=O)[O-])cc3)CC(=O)N(CC34CC5CC(CC(C5)C3)C4)[C@@H]2c2ccc(CO)cc21 | Fibrinogen (Alexa647-labelled) | Not met |
| CC(C)(C)OC(=O)CC[C@]1(C(=O)NCC(O)CO)N=C(c2ccc(OCCCO)cc2)O[C@H]1c1ccccc1N=[N+]=[N-] (some centres undefined) | Fibrinogen (Alexa647-labelled) | Met |
| C[C@]1(C(=O)O)c2ccccc2C(=O)N(Cc2cc(F)cc(C(F)(F)F)c2)[C@H]1c1ccc(CO)cc1 | Fibrinogen (Alexa647-labelled) | Met |
| COC(=O)C(CC#Cc1ccc2c(c1)[C@]1(C(=O)N2)[C@H](C(=O)NC[C@H](O)c2ccccc2)[C@H]2C(=O)O[C@H](c3ccccc3)[C@H](c3ccccc3)N2[C@@H]1c1ccccc1OCCO)C(=O)OC | Fibrinogen (Alexa647-labelled) | Met |
| [N-]=[N+]=Nc1ccccc1[C@H]1OC(c2ccc(OCCCO)cc2)=N[C@@]1(Cc1ccccc1)C(=O)NCC(O)CO (some centres undefined) | Fibrinogen (Alexa647-labelled) | Met |
| O=C1NC(=O)C2C1C=CC(C(O)c1ccc(B(O)O)cc1)N2Nc1ccc(Cl)cc1Cl (centres undefined) | Fibrinogen (Alexa647-labelled) | Met |
